procedure-details: C. albicans growth with fluconazole, confirmation, fluorescence, retest (AID 2467)
Format: functional, cell-based
Active and inactive are the calls of the source.
parameter: EC50

In: If you can, please state the reported EC50 value of CCC(=O)NC(c1ccc(OC)cc1)c1cc(Cl)c2cccnc2c1O (stereo not drawn) .
Out: 0.769 µM (active)

In: Try CN1CCN(CC(=O)N2CCn3c4c(c5cc(C6CCCCC6)ccc53)CCCC42)CC1 (stereo not drawn) next.
Out: > 38 µM (not active)

In: What about this compound? COC(=O)[C@@H]1CCCN1Cc1nc(Cc2ccccc2F)no1
Out: > 38 µM (not active)

In: Again, but for S=C(NCCN1CCOCC1)NC1CCCC1
Out: > 38 µM (not active)

In: Item: COC(=O)c1ccc(NS(=O)(=O)c2cc(-c3cc(C)no3)ccc2OC)cc1
Out: > 38 µM (not active)

In: Record: CC(=O)NC1CCCN(O)C(=O)/C=C(\C)CCOC(=O)C(NC(C)=O)CCCN(O)C(=O)/C=C(\C)CCOC(=O)C(NC(C)=O)CCCN(O)C(=O)/C=C(\C)CCOC1=O (stereo not drawn)
Out: 0.742 µM (active)

In: One more compound: Cc1ccc(C=Cc2ccc(N(C)C)cc2)[n+](C)c1
Out: 3.83 µM (active)

In: Okay, and CCCCCCCCCCn1c2c(c(=N)c3c1CCC3)CCC2 ?
Out: 0.779 µM (active)

###

Observed AC50, system Cytochrome P450 2D6 (Homo sapiens, UniProt P10635).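 Also: CYP2D6 member of a cytochrome P450 panel assay.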

In: Give AC50 (Cytochrome P450 2D6 (Homo sapiens, UniProt P10635)) of the following compound: COC(=O)c1c(NC(=O)CC2Nc3ccccc3NC2=O)sc(C)c1C (centres undefined)
Out: 25.1 µM (inconclusive)

In: Subsequent entry: Cc1ccccc1-c1cncnc1N(C)Cc1ccco1
Out: 20 µM (inconclusive)

In: Try C=CCn1c(COc2ccccc2)nnc1SCC(=O)N/N=C/c1ccc(C)cc1 next.
Out: 39.8 µM (inconclusive)

In: And CCOC(=O)C[C@@H](C(=O)OCC)[C@@H]1CCCCC1=O ?
Out: 6.31 µM (inconclusive)

###

experimental-target: Voltage-gated N-type calcium channel alpha-1B subunit/Amyloid beta A4 precursor protein-binding family A member 1 (Homo sapiens, UniProt Q00975+Q02410)
Sequence (Q00975 whole entry): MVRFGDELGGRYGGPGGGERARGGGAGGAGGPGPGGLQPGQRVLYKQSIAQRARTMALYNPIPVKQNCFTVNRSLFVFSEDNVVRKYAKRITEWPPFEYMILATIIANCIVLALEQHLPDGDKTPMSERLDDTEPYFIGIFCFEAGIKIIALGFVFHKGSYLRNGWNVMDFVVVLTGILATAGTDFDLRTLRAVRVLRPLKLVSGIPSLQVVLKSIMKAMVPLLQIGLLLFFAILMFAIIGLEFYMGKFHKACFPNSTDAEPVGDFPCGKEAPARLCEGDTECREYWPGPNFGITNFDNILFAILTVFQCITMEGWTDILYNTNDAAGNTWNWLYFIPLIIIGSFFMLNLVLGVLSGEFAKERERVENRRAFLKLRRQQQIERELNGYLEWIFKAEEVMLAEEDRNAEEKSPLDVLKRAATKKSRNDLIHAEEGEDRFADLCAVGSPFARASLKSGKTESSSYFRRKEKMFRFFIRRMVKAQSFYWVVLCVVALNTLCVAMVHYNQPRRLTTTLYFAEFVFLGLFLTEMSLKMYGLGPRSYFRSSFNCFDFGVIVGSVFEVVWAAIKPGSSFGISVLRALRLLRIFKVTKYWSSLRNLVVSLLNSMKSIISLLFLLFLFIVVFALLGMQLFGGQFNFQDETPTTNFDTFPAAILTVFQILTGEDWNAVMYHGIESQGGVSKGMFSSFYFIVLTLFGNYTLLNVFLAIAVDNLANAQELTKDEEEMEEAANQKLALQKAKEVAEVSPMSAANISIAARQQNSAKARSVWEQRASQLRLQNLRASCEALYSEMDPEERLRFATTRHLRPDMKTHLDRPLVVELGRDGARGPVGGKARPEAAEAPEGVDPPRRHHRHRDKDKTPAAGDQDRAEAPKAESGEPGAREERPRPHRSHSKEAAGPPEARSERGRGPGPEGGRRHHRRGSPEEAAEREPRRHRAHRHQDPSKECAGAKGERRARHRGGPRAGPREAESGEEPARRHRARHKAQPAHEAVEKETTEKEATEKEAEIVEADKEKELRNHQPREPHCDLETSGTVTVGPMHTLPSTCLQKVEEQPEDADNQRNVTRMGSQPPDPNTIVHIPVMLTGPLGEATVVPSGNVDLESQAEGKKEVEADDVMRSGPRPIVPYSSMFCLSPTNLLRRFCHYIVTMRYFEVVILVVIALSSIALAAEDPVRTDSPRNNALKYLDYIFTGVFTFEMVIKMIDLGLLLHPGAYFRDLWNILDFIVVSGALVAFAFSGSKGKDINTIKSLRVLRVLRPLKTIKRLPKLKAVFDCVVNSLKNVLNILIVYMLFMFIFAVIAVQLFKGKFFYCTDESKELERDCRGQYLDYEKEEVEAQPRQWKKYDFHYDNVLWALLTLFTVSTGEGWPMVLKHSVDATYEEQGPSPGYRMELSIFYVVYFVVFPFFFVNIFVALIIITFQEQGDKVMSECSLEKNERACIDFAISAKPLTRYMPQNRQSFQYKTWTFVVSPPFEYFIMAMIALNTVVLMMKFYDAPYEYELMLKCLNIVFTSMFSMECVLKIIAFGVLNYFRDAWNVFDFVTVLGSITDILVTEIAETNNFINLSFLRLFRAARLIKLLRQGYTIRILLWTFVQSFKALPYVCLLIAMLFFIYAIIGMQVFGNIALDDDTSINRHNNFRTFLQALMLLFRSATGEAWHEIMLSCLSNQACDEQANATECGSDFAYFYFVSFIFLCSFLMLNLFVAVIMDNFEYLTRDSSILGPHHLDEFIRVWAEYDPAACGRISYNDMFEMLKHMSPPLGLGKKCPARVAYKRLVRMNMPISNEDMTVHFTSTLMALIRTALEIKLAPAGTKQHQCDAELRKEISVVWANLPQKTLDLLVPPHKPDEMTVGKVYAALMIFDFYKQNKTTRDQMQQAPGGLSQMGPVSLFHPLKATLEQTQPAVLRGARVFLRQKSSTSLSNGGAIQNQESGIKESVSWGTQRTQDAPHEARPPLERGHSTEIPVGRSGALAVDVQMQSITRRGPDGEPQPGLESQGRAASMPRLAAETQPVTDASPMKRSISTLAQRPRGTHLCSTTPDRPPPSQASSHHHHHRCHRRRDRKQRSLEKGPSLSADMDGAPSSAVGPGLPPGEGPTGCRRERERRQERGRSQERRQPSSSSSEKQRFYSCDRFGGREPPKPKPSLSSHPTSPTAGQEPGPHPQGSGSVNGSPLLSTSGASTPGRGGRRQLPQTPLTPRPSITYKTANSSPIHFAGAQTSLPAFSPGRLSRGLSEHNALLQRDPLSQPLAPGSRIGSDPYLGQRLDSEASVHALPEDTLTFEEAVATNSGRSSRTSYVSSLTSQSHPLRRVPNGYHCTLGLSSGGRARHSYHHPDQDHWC
Sequence (Q02410 whole entry): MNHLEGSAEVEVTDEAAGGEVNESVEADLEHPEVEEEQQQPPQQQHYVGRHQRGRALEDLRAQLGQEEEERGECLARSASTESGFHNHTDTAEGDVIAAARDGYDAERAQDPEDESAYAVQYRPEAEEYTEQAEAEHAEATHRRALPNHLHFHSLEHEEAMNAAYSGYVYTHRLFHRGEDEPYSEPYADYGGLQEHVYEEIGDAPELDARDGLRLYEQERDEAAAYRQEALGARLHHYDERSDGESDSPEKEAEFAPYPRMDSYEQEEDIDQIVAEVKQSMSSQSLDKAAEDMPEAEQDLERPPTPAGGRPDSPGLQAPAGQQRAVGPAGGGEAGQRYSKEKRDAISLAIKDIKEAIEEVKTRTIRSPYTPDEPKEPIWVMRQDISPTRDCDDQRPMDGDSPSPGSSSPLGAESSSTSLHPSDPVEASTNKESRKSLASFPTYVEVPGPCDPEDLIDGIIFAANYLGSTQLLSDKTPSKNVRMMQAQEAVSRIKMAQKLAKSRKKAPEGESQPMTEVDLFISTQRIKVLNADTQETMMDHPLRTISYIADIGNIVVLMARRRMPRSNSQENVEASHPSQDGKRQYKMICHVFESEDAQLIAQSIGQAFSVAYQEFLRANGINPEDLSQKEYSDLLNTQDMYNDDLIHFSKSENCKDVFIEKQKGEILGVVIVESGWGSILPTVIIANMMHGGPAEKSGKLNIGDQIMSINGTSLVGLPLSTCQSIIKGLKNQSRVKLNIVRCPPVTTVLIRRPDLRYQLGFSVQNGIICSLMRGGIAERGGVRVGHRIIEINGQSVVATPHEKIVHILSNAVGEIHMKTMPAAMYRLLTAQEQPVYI
Type: protein assay
The source made the active and inactive calls.
parameter: IC50

In: Query (compound): C=C(C)C(=O)Nc1cccc(C2=NOC3(C2)C[C@@H](C(N)=O)N(C(=O)/C(C)=C/C)C3)c1 (stereo not given in full) ; field requested: IC50
Out: 17.7 µM (active)

In: // repeat for CCOc1cc(/C=N/NC(=O)c2ccc(-c3csc(Nc4ccc(C)cc4)n3)cc2)ccc1OCC(=O)O and report
Out: 11.1 µM (active)

In: Also Cc1cccc(NC(=S)NC2CCCC2)n1 ?
Out: 7.9 µM (active)

In: Let us now turn to N=C1/C(=C\c2ccc(-c3ccc(C(=O)O)cc3)o2)C(=O)N=C2SC=C(c3ccccc3)N12
Out: 4.12 µM (active)

In: Repeat for the following compound: O=C1NC(=O)N(Cc2ccccc2)C(=O)/C1=C/c1cnn(-c2ccccc2)c1
Out: 14.9 µM (active)

###

Test system: Streptococcus sp. 'group A'
procedure-details: growth inhibition of control SK(-) GAS strain, dose response, counter-screen for streptokinase expression inhibitor project, luminescence, kanamycin, BacTiterGlo, confirmation (AID 1900)
Type: functional, organism-based
Calls of active or inactive are those of the source.
Give measured EC50 for each item. Keep answers brief.

In: Request - read-out EC50 | tested on Streptococcus sp. 'group A' | compound COc1ccc(/C=C2/C(=O)N(c3nc4ccccc4s3)N=C2CSc2ccc(Cl)cc2)cc1
Out: 0.647 µM (active)

In: Next: COc1cc(OC)cc(-c2cc3nc4c(c(N5CCN(c6ncccn6)CC5)n3n2)CCCC4)c1
Out: 13.2 µM (active)

In: Now consider O=C(CSc1ccc2ccccc2n1)N/N=C/c1ccccc1O and answer again.
Out: 1.1 µM (active)

In: Repeat for the following compound: O=C(Nc1cc([N+](=O)[O-])ccc1O)c1cccc(NC(=O)c2ccco2)c1
Out: 5.58 µM (active)

In: And Cc1nn(-c2ccccc2)c(Cl)c1C1C(C#N)=C(N)OC2=C1C(=O)CCC2 (configuration not stated) ?
Out: 1.77 µM (active)

In: Please do the same for Cc1nc2ccccc2n1/N=C/c1ccc([N+](=O)[O-])s1 as well.
Out: 3.63 µM (active)

In: What about CCOC(=O)c1sc(Nc2nc3ccc(OC)cc3s2)cc1C ?
Out: 9.29 µM (active)

###

Field: IC50. Provide a value for each of the molecules that follow.
experimental-target: High affinity choline transporter 1 (Homo sapiens, UniProt Q9GZV3)
Sequence (Q9GZV3 whole entry): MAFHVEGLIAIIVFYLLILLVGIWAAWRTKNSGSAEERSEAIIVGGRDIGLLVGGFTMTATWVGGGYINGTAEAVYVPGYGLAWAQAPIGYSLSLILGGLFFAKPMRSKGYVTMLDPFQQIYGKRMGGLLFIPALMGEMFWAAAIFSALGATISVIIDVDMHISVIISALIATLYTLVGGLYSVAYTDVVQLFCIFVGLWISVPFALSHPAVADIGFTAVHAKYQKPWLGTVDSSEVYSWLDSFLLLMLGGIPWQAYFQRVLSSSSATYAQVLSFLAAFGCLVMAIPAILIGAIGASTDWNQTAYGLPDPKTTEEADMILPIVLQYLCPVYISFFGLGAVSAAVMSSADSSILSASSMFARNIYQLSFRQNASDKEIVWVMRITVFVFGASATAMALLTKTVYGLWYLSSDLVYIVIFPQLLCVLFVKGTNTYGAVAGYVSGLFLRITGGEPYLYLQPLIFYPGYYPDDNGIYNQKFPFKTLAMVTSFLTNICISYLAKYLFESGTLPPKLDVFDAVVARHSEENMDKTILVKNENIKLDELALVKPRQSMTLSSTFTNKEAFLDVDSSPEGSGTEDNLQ
procedure-details: CHT inhibitors, dose response, cell-based, 5-point CRC, membrane potential dye (AID 504840)
Type: functional
The source made the active and inactive calls.

In: Could you tell me which IC50 is on file for CC(c1ccco1)N(C(=O)c1ccccc1NS(=O)(=O)c1ccc(Cl)c([N+](=O)[O-])c1)c1ccccn1 (configuration not stated) ?
Out: 0.661 µM (inconclusive)

In: Then C/C(=N\N=C(N)N)c1ccc(Cl)cc1 ?
Out: 7.39 µM (active)

In: Repeat for the following molecule: CCOC(=O)c1c(NC(=O)CCN2C(=O)c3cccc([N+](=O)[O-])c3C2=O)sc(C(=O)OC(C)C)c1C
Out: 12.6 µM (active)

In: And what about the molecule CN(Cc1ccccc1)C(=O)CN1CCN(C(c2ccccc2)c2ccccc2)CC1 ?
Out: 11.5 µM (active)

In: Moving on to the next molecule: Cc1ccc(NC(S)=NNC(=O)c2cccc([N+](=O)[O-])c2)cc1Cl
Out: 12.6 µM (active)

In: Then O=[N+]([O-])c1cc(Br)c(O)c(/C=N/Nc2nnnn2-c2cccc3ccccc23)c1 ?
Out: 30.2 µM (active)

In: Another molecule to check: O=C(c1ccc(COc2ccccc2[N+](=O)[O-])o1)N1CCCCCC1
Out: 12.6 µM (active)

###

Provide the reported EC50 of each item.
Test system: BJ
procedure-details: cytotoxicity toward BJ-TERT fibroblasts, dose response, cell-based, RAS-independent, luminescence (AID 1933)
Assay type: functional
condition: Homo sapiens
Calls of active or inactive are those of the source.

In: Can you look up EC50 on BJ for Cc1cccc(N2CCN(C(=S)Nc3ccc4nc(N5CCN(C)CC5)cc(C)c4c3)CC2)c1C ?
Out: 1220 nM (inconclusive)

In: # iterate: Cc1ccc(C)c(NS(=O)(=O)c2ccc(-c3cnc(C4CC4)o3)cc2)c1
Out: 150 nM (active)

In: Another molecule to look at: Cc1ccc(-c2nn(CC(=O)NCc3cc(-c4nn(C)c(=O)c5ccccc45)ccc3C)c(=O)c3ccccc23)cc1
Out: 4250 nM (active)

In: Same for CCCCCCCCCCn1c2c(c(=N)c3c1CCC3)CCC2
Out: 3260 nM (inconclusive)

In: Record: Cc1cc(C)cc(NS(=O)(=O)c2ccc(-c3cnc(C4CC4)o3)cc2)c1
Out: 346 nM (active)

###

procedure-details: Luminescence Cell-Based Dose Confirmation HTS to Identify Inhibitors of Platelet Dense Granule Release. [Related pubchem assays: 1663 (Primary HTS), 1678 (Summary of Project)]
Type: functional
Activity calls are given as the source filed them.
parameter: EC50

In: What EC50 value was documented for this compound, CCCCOC(=O)c1ccc(N=Nc2c(O)nc(O)c(C#N)c2C)cc1 ?
Out: > 112 µM (not active)

In: Same for Cc1ccc2nc(O)c3cc(C(=O)N(C)c4ccc(C)c(C)c4)sc3c2c1
Out: > 112 µM (not active)

In: One more compound: Cn1c(CN2CCCC2)nc2cc(NC(=O)COc3ccccc3)ccc21
Out: > 112 µM (not active)

In: And what about the compound CC(=O)c1c2c3c(c(Br)ccc3n(C)c1=O)C(=O)c1ccccc1-2 ?
Out: > 112 µM (not active)

In: // same read-out, input: Cc1cc2ccccc2nc1SCC(=O)N1c2ccccc2CC1C (stereo not given)
Out: 11.9 µM (active)

###

Record form. Attribute: IC50. Fill in for each entry.
experimental-target: Polyadenylate-binding protein 1 (Homo sapiens, UniProt P11940)
Sequence (P11940 whole entry): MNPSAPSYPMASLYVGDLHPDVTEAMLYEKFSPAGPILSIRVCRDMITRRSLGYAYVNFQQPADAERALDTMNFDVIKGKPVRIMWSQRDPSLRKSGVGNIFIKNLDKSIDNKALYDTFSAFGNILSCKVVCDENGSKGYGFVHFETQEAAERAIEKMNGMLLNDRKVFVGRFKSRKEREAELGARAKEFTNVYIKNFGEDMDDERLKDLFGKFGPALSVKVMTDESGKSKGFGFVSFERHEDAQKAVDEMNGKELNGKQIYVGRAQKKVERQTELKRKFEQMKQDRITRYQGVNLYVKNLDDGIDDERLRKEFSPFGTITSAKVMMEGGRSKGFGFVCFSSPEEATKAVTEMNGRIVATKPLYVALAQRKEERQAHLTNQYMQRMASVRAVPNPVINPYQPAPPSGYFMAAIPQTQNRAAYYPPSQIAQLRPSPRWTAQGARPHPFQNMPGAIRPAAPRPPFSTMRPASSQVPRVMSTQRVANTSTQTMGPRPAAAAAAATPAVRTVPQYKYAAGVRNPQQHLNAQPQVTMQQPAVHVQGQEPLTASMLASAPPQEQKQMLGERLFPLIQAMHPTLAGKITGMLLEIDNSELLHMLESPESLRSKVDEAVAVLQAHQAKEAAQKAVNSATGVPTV
procedure-details: PABP1 MLLE–PAM2 binding inhibitor potency, dose response, biochemical, fluorescence polarization, FITC-PAM2 peptide (AID 602259)
Format: functional
condition: read-out: IC50_Mean
Active and inactive are the calls of the source.

In: Find the measured IC50: item CCCN1C(=O)SC(CC(=O)Nc2ccc(C)cc2)C1=O (stereo unspecified) , target or system Polyadenylate-binding protein 1 (Homo sapiens, UniProt P11940).
Out: > 66 µM (inactive)

In: Proceed to CC(=O)c1c2c3c(c(Br)ccc3n(C)c1=O)C(=O)c1ccccc1-2
Out: 37.5 µM (inactive)

In: What about this compound? COc1cccc(-n2c(=S)sc3c(=O)n(-c4ccccc4OC)c(=S)[nH]c32)c1
Out: > 66 µM (inactive)

In: Now consider CC(C)(CCC(=S)N1CCOCC1)C1CCCCC1 .
Out: > 66 µM (inactive)

In: Would you kindly repeat that for CC(=O)c1ccc(OCCCC(=O)NC2=NCCS2)cc1 ?
Out: > 66 µM (inactive)

In: Note, next up: CC1=C(C(=O)O)N2C(=O)C(NC(=O)c3ccc(F)cc3)C2SC1 (stereo unspecified)
Out: > 66 µM (inactive)
